Exercise: state measured hs20S kin/Ki for each of the compounds provided.
# test.system: human 20S proteasome (hs20S), chymotrypsin-like β5-subunits (Homo sapiens, UniProt P20618+P28074)
# Construct: purchased R&D
# assay.procedure: In vitro 20S peptidase inhibition kinetics, chymotrypsin-like activity (Suc-LLVY-AMC)
# Format: biochemical
# test.context: second-order rate constant, Suc-LLVY-AMC substrate, 37° C.

QUERY: So what's the measured hs20S kin/Ki for this one? COC(=O)[C@@H](NC(=O)N[C@H](C(=O)N[C@H]1CCCCNC(=O)/C=C/[C@H](Cc2cc(F)cc(F)c2)NC1=O)C(C)C)C(C)C
RESULT: 1,579 M^−1s^−1

QUERY: Look up hs20S kin/Ki: COC(=O)[C@@H](NC(=O)N[C@@H](Cc1ccccc1)C(=O)N[C@H]1CCCCNC(=O)/C=C/[C@H](Cc2ccccc2F)NC1=O)C(C)C
RESULT: 5877 M⁻¹ s⁻¹

QUERY: Reported hs20S kin/Ki for COC(=O)[C@@H](NC(=O)N[C@@H](Cc1cccc(F)c1)C(=O)N[C@H]1CCCCNC(=O)/C=C/[C@H](Cc2cccc(F)c2)NC1=O)C(C)C : what is it?
RESULT: 5016 M⁻¹ s⁻¹

###

What hs20S kin/Ki was measured for each of the following?
# test.system: human 20S proteasome (hs20S), chymotrypsin-like β5-subunits (Homo sapiens, UniProt P20618+P28074)
# Construct: purchased R&D
# assay.procedure: In vitro 20S peptidase inhibition kinetics, chymotrypsin-like activity (Suc-LLVY-AMC)
# Format: biochemical
# test.context: second-order rate constant, Suc-LLVY-AMC substrate, 37° C.
Respond with the bare value in M⁻¹ s⁻¹.

QUERY: Look at this molecule and give its reported hs20S kin/Ki. COC(=O)[C@@H](NC(=O)N[C@@H](Cc1ccc(C)cc1)C(=O)N[C@H]1CCCCNC(=O)/C=C/[C@H](Cc2ccccc2F)NC1=O)C(C)C [Compound 21]
RESULT: 7332

QUERY: Param item = COC(=O)[C@@H](NC(=O)N[C@@H](Cc1ccccc1Cl)C(=O)N[C@H]1CCCCNC(=O)/C=C/[C@H](Cc2cccc(F)c2)NC1=O)C(C)C [Compound 24] ; retrieve measured hs20S kin/Ki.
RESULT: 2749

QUERY: Need hs20S kin/Ki, item COC(=O)[C@@H](NC(=O)N[C@@H](Cc1cccc(C(F)(F)F)c1)C(=O)N[C@H]1CCCCNC(=O)/C=C/[C@H](Cc2cccc(F)c2)NC1=O)C(C)C [Compound 32]
RESULT: 4531

QUERY: Dear colleague, I am looking for the recorded hs20S kin/Ki of the following molecule: COC(=O)[C@@H](NC(=O)N[C@@H](Cc1ccc(C)cc1)C(=O)N[C@H]1CCCCNC(=O)/C=C/[C@H](Cc2cccc(F)c2)NC1=O)C(C)C [Compound 29]
RESULT: 11670

QUERY: Return reported hs20S kin/Ki; argument: COC(=O)[C@@H](NC(=O)N[C@@H](Cc1ccccc1Cl)C(=O)N[C@H]1CCCCNC(=O)/C=C/[C@H](Cc2ccccc2F)NC1=O)C(C)C [Compound 17]
RESULT: 7271

QUERY: Tell me the measured hs20S kin/Ki of COC(=O)[C@@H](NC(=O)N[C@@H](Cc1ccccc1)C(=O)N[C@H]1CCCCNC(=O)/C=C/[C@H](Cc2cccc(F)c2)NC1=O)C(C)C [Compound 27] , please.
RESULT: 14336

Source: patent US10597368B2
